target: ERK1 (Homo sapiens, UniProt P27361)
Sequence (P27361 whole entry): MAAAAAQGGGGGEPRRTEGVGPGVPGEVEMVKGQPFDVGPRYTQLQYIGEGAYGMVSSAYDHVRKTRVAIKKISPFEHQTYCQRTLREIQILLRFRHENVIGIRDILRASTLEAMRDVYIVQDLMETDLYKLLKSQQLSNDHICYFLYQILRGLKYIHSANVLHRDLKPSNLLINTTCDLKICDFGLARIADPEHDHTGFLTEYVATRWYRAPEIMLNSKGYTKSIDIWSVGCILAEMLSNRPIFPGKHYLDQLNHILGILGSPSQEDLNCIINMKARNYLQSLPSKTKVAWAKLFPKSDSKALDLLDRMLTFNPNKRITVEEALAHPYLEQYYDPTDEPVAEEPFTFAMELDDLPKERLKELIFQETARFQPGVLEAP
assay.procedure: biochemical
condition.parameters: Ki against recombinant ERK1, tight-binding
recorded.endpoint: Ki

Exercise: Give ERK1 (Homo sapiens, UniProt P27361) Ki for `CC(C)Nc1cc(-c2c[nH]c(C(=O)N[C@H](CO)c3cccc(Cl)c3)c2)c(Cl)cn1`
Solution: < 0.3 nM

----------
Tested on: A375
assay.procedure: Reverse Phase Protein Analysis (RPPA)
Assay type: cell-based, human
condition.parameters: % change from DMSO (matched cell line)
recorded.endpoint: Avg (Stat3) (%)
Write the answer as a number in %, unit excluded.

# count of solved cases: 3
{"compound": "Cc1cnc(Nc2ccc(F)cc2Cl)nc1-c1c[nH]c(C(=O)N[C@H](CO)c2cccc(Cl)c2)c1 [Vx-11e]", "Avg (Stat3) / %": 1.71}
{"compound": "Cn1nccc1Nc1nccc(-c2ccn([C@H](CO)c3ccc(Cl)c(F)c3)c(=O)c2)n1", "Avg (Stat3) / %": 14.24}
{"compound": "CC(C)Nc1cc(-c2c[nH]c(C(=O)N[C@H](CO)c3cccc(Cl)c3)c2)c(Cl)cn1", "Avg (Stat3) / %": 6.02}

In the following, a different compound is considered.
Exercise: Avg (Stat3) for `O=C(Nc1ccc2[nH]nc(-c3ccncc3)c2c1)[C@@H]1CCN(CC(=O)N2CCN(c3ccc(-c4ncccn4)cc3)CC2)C1` ?
Solution: −1.42

----------
Attribute: Avg (bad S112)
Test system: HT29
assay.procedure: Reverse Phase Protein Analysis (RPPA)
Type: cell-based
condition.parameters: % change from DMSO (matched cell line)
Just the number in %, nothing appended.

{"molecule": "CC(C)Nc1cc(-c2c[nH]c(C(=O)N[C@H](CO)c3cccc(Cl)c3)c2)c(Cl)cn1", "measure.unit": "%", "Avg (bad S112)": "−20.66"}
{"molecule": "O=C(Nc1ccc2[nH]nc(-c3ccncc3)c2c1)[C@@H]1CCN(CC(=O)N2CCN(c3ccc(-c4ncccn4)cc3)CC2)C1", "measure.unit": "%", "Avg (bad S112)": "−33.9"}
{"molecule": "Cc1cnc(Nc2ccc(F)cc2Cl)nc1-c1c[nH]c(C(=O)N[C@H](CO)c2cccc(Cl)c2)c1 [Vx-11e]", "measure.unit": "%", "Avg (bad S112)": "−35.62"}

Exercise: Could you share what Avg (bad S112) was measured for `Cn1nccc1Nc1nccc(-c2ccn([C@H](CO)c3ccc(Cl)c(F)c3)c(=O)c2)n1` , tested on HT29?
Solution: −12.98

----------
Tested on: AN3Ca
assay.procedure: Reverse Phase Protein Analysis (RPPA)
Type: cell-based
condition.parameters: % change from DMSO (matched cell line)
recorded.endpoint: Avg (Bcl 2) (%)
Give the number; % is assumed, so skip it.

Below: 3 molecules and their reported Avg (Bcl 2).
{"molecule": "Cc1cnc(Nc2ccc(F)cc2Cl)nc1-c1c[nH]c(C(=O)N[C@H](CO)c2cccc(Cl)c2)c1 [Vx-11e]", "recorded.endpoint": "Avg (Bcl 2)", "assay.result": "−18.77"}
{"molecule": "O=C(Nc1ccc2[nH]nc(-c3ccncc3)c2c1)[C@@H]1CCN(CC(=O)N2CCN(c3ccc(-c4ncccn4)cc3)CC2)C1", "recorded.endpoint": "Avg (Bcl 2)", "assay.result": "−5.14"}
{"molecule": "CC(C)Nc1cc(-c2c[nH]c(C(=O)N[C@H](CO)c3cccc(Cl)c3)c2)c(Cl)cn1", "recorded.endpoint": "Avg (Bcl 2)", "assay.result": "−16.83"}

# next molecule below
Exercise: # get_value(readout='Avg (Bcl 2)', item= `Cn1nccc1Nc1nccc(-c2ccn([C@H](CO)c3ccc(Cl)c(F)c3)c(=O)c2)n1` )
Solution: 7.8

----------
System: Colo205
assay.procedure: Reverse Phase Protein Analysis (RPPA)
Format: cell-based, human
condition.parameters: % change from DMSO (matched cell line)
Reported Avg (p90 RSK S380) is given for each of the following compounds.
Kindly provide the numeric value in % only, without the unit symbol.

In the examples that follow, each entry is paired with its recorded Avg (p90 RSK S380).
{"compound": "CC(C)Nc1cc(-c2c[nH]c(C(=O)N[C@H](CO)c3cccc(Cl)c3)c2)c(Cl)cn1", "measure.unit": "%", "Avg (p90 RSK S380)": "−50.84"}
{"compound": "O=C(Nc1ccc2[nH]nc(-c3ccncc3)c2c1)[C@@H]1CCN(CC(=O)N2CCN(c3ccc(-c4ncccn4)cc3)CC2)C1", "measure.unit": "%", "Avg (p90 RSK S380)": "−62.31"}
{"compound": "Cc1cnc(Nc2ccc(F)cc2Cl)nc1-c1c[nH]c(C(=O)N[C@H](CO)c2cccc(Cl)c2)c1 [Vx-11e]", "measure.unit": "%", "Avg (p90 RSK S380)": "−58.6"}

Continue with the compound presented below.
Exercise: Can you look up the measured Avg (p90 RSK S380) of `Cn1nccc1Nc1nccc(-c2ccn([C@H](CO)c3ccc(Cl)c(F)c3)c(=O)c2)n1` for me?
Solution: −57.5

----------
Test system: HT29
assay.procedure: Reverse Phase Protein Analysis (RPPA)
Format: cell-based
condition.parameters: % change from DMSO (matched cell line)
recorded.endpoint: Avg(p70 S6 Kinase S371 S394) (%)
All answers are understood in %, so give the number only.

{"compound": "O=C(Nc1ccc2[nH]nc(-c3ccncc3)c2c1)[C@@H]1CCN(CC(=O)N2CCN(c3ccc(-c4ncccn4)cc3)CC2)C1", "assay.result": "−20.52"}
{"compound": "CC(C)Nc1cc(-c2c[nH]c(C(=O)N[C@H](CO)c3cccc(Cl)c3)c2)c(Cl)cn1", "assay.result": "−35.94"}
{"compound": "Cc1cnc(Nc2ccc(F)cc2Cl)nc1-c1c[nH]c(C(=O)N[C@H](CO)c2cccc(Cl)c2)c1 [Vx-11e]", "assay.result": "−22.86"}

Okay, next one:
Exercise: Query (compound): `Cn1nccc1Nc1nccc(-c2ccn([C@H](CO)c3ccc(Cl)c(F)c3)c(=O)c2)n1` ; field requested: Avg(p70 S6 Kinase S371 S394)
Solution: −25.73

----------
We begin with a simple list: items and their reported Avg (Akt).
System: Colo205
assay.procedure: Reverse Phase Protein Analysis (RPPA)
Type: cell-based, human
condition.parameters: % change from DMSO (matched cell line)

Some compounds with recorded Avg (Akt):
{"compound": "CC(C)Nc1cc(-c2c[nH]c(C(=O)N[C@H](CO)c3cccc(Cl)c3)c2)c(Cl)cn1", "assay.result": "−3.85%"}
{"compound": "Cn1nccc1Nc1nccc(-c2ccn([C@H](CO)c3ccc(Cl)c(F)c3)c(=O)c2)n1", "assay.result": "−11.83%"}
{"compound": "Cc1cnc(Nc2ccc(F)cc2Cl)nc1-c1c[nH]c(C(=O)N[C@H](CO)c2cccc(Cl)c2)c1 [Vx-11e]", "assay.result": "−12.51%"}

Then there is this compound:
Exercise: // query Avg (Akt) value for entry `O=C(Nc1ccc2[nH]nc(-c3ccncc3)c2c1)[C@@H]1CCN(CC(=O)N2CCN(c3ccc(-c4ncccn4)cc3)CC2)C1`
Solution: −10.31%

----------
assay.procedure: Phase I study: pharmacokinetic analysis
Format: in vivo, human
condition.parameters: human, plasma, oral, 750 mg, 750 mg BID; Day 15; read-out: AUC0-12 ± SD
recorded.endpoint: AUC(0-t) (ng·h/mL)
Entry rule: numbers only, all in ng·h/mL.

Exercise: Tell me the measured AUC(0-t) of CC(C)Nc1cc(-c2c[nH]c(C(=O)N[C@H](CO)c3cccc(Cl)c3)c2)c(Cl)cn1 [BVD-523] , please.
Solution: 23300

----------
System: dose-escalated A375 cells
assay.procedure: Proliferation assay (Alamar Blue, 96 h) in dose-escalated A375 cell lines
Assay type: cell-based, human
condition.parameters: Homo sapiens, A-375, read-out: Relative IC50, Month 2; Dab/523-escalated line
recorded.endpoint: pIC50
Scale: negative log10 of molar concentration, which is what pIC50 denotes.

Exercise: Any idea what its pIC50 is? The compound is CC(C)(C)c1nc(-c2cccc(NS(=O)(=O)c3c(F)cccc3F)c2F)c(-c2ccnc(N)n2)s1 [Dabrafenib]
Solution: 6.66

----------
Parameter: Avg (Raptor). Scope: all listed entries.
Tested on: HCT116
assay.procedure: Reverse Phase Protein Analysis (RPPA)
Format: cell-based, human
condition.parameters: % change from DMSO (matched cell line)
Numeric answer only, unit % assumed.

{"compound": "CC(C)Nc1cc(-c2c[nH]c(C(=O)N[C@H](CO)c3cccc(Cl)c3)c2)c(Cl)cn1", "measure.unit": "%", "Avg (Raptor)": "−7.06"}
{"compound": "Cn1nccc1Nc1nccc(-c2ccn([C@H](CO)c3ccc(Cl)c(F)c3)c(=O)c2)n1", "measure.unit": "%", "Avg (Raptor)": "−6.2"}
{"compound": "Cc1cnc(Nc2ccc(F)cc2Cl)nc1-c1c[nH]c(C(=O)N[C@H](CO)c2cccc(Cl)c2)c1 [Vx-11e]", "measure.unit": "%", "Avg (Raptor)": "−4.32"}

Next:
Exercise: Quick one: Avg (Raptor) of `O=C(Nc1ccc2[nH]nc(-c3ccncc3)c2c1)[C@@H]1CCN(CC(=O)N2CCN(c3ccc(-c4ncccn4)cc3)CC2)C1` ?
Solution: −9.66
